Data provenance is patent US20260242735A1.

Target system: human CD33 S248A (human, UniProt P20138 18-364)
Sequence (P20138 18-364 S248A limits assumed): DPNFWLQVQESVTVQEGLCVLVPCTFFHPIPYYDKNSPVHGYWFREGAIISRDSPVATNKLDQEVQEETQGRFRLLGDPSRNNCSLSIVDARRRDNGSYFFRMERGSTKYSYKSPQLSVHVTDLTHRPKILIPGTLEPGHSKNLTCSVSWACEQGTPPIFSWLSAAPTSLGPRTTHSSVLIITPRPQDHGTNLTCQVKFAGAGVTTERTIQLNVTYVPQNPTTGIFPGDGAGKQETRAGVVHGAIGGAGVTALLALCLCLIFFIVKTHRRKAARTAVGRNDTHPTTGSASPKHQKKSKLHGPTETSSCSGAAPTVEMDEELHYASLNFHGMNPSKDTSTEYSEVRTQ
Procedure text: alanine scan, flow cytometry, HEK293-T;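 also: antibody binding to each alanine-substituted CD33 mutant expressed transiently in HEK293-T, read as fluorescence minus background, mean of duplicates, relative to wild-type CD33 set as 100%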
Catalogue of Mean % WT Binding values
Field format: number, assumed % WT binding, no unit text.

Determine its reported Mean % WT Binding: Refmab #3 (antibody, V domains shown, The alanine scan used IgG or Fab) VH: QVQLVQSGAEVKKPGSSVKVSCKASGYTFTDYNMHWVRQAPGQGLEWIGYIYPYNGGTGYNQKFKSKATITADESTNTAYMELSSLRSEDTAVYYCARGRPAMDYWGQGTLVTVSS VL: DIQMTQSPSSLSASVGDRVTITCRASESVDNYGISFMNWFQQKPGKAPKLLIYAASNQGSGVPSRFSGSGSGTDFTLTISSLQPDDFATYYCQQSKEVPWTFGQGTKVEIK 133
